assay comment: yeast display, Sf9 membrane polyspecificity reagent, FACS + sequencing; frameworks hold sequencing errors
quantity name: polyreactivity (PSR sort gate)

biopolymer sequence	quantity name	endpoint value
QVQLVDSGGGLVQAGGSLRLSCAASGFTFYSYAMGWYRQAPGKERELVASITSGGSTYYADSVKGLFTISRDNGKNTVYLPMNSLNPEYTAVSYCAATRGYSQYGRVRKYGYWGLGTQVTVSS	polyreactivity (PSR sort gate)	high polyreactivity
QVQLVESGGGLVQAGGSLRLSCAASGITFRDYAMGWYRQAPGKERELVAAISRSVGSTYYADSVKGRFTISRDNAKNTVYLQMNSLKPEDTAVYYCAALSQREFDYWGQGTQVTVSS	polyreactivity (PSR sort gate)	high polyreactivity
QVQLVESGGGLVQAGGSLRLSCAASGFIFTGNAMGWYRQAPGKERELVAAITGRGSTYYADSVKGRFTISRDNAKNTVYLQMNSLKPEDTAVYYCAAKRWWQYYWGQGTQVTVSS	polyreactivity (PSR sort gate)	high polyreactivity
QVHLVESGGGLVQAGGSLRLSCAASGRTFGYYAMGWYRQAPGKERELVAAITRTGGSTHYADSVKGRFTISRDNAKNTVYLQMNSLKPEDTAVYYCAADKRGTVYLSSFWMDYWGQGTQVTVSS	polyreactivity (PSR sort gate)	low polyreactivity
QVQLVESGGGLVQAGGSLRLSCAASGRIFGVNAMGWYRQAPGKERELVADITGSGGSTYYADSVKGRFTISRDNAKNTVYLQMNCLKAEDTAVYYCATRWIGYTSQWDHFEYDYWGQGTQVTVSS	polyreactivity (PSR sort gate)	low polyreactivity
QVQLVESGGGLVQAGGSLRLICAASGSTFGRYAMGWYRQAPGKERELVAGITYGSTYYADSVKGRFTISRDNAKNTVYLQMHSLKPEDTAVYYCAADLSYTSVHGYRSDTLMDYWRQGTQVTVSS	polyreactivity (PSR sort gate)	low polyreactivity
QVQHVESGGGLVQAGGSLRLSCAASGSTFRRYAMGWYRQAPGKERELVASITYRGGSTYYADSVKGRFTISRDNAKNTVYLQKNSLKPEDTAVYYCSKKGVYGPLIEYWAQGTQVTVSS	polyreactivity (PSR sort gate)	high polyreactivity
QVQLVESGGGLVQAGGSLRLSCAASGSTFIYNAMGWYRLAPGKEREFVAGITGSGGSTYYADSVKGRFTISRDNAKNTVYLQMNSLKPEDTAVNYCNADSPVVNYADLDYWGQGTQVSVSS	polyreactivity (PSR sort gate)	low polyreactivity
